# measured-target: TRKC-G696A (Homo sapiens, UniProt Q16288, G696A)
# Sequence (Q16288 32-839 G696A): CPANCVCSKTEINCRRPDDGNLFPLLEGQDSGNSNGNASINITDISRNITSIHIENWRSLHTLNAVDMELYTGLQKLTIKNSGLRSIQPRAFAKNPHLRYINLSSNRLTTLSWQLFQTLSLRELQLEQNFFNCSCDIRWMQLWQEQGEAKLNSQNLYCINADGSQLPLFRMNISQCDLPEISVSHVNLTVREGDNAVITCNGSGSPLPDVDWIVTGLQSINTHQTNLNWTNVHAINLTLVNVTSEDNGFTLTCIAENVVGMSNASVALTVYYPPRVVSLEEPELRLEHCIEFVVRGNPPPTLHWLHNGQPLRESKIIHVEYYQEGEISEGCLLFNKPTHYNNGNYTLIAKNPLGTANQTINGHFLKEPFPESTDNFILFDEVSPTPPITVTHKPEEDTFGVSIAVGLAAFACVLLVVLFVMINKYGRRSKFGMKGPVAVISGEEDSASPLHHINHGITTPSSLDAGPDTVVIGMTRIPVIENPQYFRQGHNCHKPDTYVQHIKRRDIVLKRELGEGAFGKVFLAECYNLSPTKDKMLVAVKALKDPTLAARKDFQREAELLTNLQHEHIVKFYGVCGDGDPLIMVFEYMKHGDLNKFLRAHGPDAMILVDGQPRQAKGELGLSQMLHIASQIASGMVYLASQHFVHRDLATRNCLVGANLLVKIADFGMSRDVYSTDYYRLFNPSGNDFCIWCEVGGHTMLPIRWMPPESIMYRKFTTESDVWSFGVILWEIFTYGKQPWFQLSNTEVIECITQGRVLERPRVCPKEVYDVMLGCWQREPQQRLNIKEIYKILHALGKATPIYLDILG
# experimental-details: Reaction Biology HotSpot Kinase assay, direct enzyme phosphorylation
# settings: xDFG Mutant TRKC-G696A
# Procedure: Direct enzyme phosphorylation assay. The Reaction Biology HotSpot Kinase assay was used to screen the present invention against a panel of normal TRKA, TRKB, and TRKC and mutated TRK kinases. […] Radioactivity was detected by filter-binding method, and kinase activity expressed as the percent remaining kinase activity in test samples compared to vehicle reactions. […] The activity of the besylate salt of the present invention was determined using a direct enzymatic Reaction Biology HotSpot Kinase assay. […]
parameter-measured: pIC50
Recall that pIC50 is obtained by taking minus log10 of the concentration measured in molar.

stdin: # pIC50 lookup, item CC1(COc2ccc3c(c2)ncn3-c2ccc3cccc(N4CCC(N)CC4)c3n2)COC1 [crenolanib besylate, Crenolanib Besylate]
stdout: 8.24

---

# measured-target: TRKA-G667C (Homo sapiens, UniProt P04629, G667C)
# Sequence (P04629 33-796 G667C): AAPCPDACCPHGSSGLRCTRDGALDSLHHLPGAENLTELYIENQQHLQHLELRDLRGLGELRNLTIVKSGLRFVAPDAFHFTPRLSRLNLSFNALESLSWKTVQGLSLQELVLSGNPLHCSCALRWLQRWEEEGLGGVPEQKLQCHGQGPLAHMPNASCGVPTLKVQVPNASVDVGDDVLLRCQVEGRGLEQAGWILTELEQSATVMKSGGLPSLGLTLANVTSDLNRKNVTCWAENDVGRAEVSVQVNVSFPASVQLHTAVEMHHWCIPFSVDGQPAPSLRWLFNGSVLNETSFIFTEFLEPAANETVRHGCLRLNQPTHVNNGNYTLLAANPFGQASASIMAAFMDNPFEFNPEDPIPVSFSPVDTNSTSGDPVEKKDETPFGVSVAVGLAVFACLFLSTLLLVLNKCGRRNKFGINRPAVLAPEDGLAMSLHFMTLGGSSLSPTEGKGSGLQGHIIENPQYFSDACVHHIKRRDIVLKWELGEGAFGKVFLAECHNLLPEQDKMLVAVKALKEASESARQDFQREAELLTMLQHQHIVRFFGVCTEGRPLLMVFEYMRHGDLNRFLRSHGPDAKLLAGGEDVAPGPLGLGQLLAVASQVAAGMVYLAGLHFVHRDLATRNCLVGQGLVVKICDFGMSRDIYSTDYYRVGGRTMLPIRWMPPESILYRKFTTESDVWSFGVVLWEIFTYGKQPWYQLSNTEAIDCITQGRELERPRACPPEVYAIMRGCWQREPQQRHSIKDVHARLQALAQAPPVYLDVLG
# experimental-details: Reaction Biology HotSpot Kinase assay, direct enzyme phosphorylation
# settings: xDFG Mutant TRKA-G667C
parameter-measured: IC50 (nM)
Answer with a number only, understood to be in nM.

stdin: Quick check: IC50 on TRKA-G667C (Homo sapiens, UniProt P04629, G667C), item CC1(COc2ccc3c(c2)ncn3-c2ccc3cccc(N4CCC(N)CC4)c3n2)COC1 [crenolanib besylate, Crenolanib Besylate] ?
stdout: 5

---

# measured-target: TRKA-L657M (Homo sapiens, UniProt P04629, L657M)
# Sequence (P04629 33-796 L657M): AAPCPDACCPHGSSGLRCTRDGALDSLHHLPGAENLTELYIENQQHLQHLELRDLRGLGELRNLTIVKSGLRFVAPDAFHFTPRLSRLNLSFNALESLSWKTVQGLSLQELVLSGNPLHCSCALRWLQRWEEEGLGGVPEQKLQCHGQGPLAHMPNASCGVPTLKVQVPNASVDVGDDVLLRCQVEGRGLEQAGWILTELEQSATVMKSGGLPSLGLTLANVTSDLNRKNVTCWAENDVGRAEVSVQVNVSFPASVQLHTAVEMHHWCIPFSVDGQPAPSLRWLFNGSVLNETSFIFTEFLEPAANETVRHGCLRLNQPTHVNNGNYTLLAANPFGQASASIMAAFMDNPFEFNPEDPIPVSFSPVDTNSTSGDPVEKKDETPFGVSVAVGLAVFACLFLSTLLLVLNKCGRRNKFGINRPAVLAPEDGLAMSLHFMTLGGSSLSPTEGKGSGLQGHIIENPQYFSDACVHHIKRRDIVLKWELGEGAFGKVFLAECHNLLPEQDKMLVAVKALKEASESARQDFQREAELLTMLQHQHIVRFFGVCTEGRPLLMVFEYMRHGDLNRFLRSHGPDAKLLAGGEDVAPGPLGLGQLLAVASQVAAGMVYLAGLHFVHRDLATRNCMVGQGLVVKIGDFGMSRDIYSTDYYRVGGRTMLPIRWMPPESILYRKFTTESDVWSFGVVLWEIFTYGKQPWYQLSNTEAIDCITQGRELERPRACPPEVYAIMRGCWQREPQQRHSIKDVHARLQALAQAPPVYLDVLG
# experimental-details: Reaction Biology HotSpot Kinase assay, direct enzyme phosphorylation
# settings: Other Mutant TRKA-L657M
parameter-measured: IC50
Answer format reminder: number followed by unit.

stdin: Name the reported IC50 value associated with the molecule CC1(COc2ccc3c(c2)ncn3-c2ccc3cccc(N4CCC(N)CC4)c3n2)COC1 [crenolanib besylate, Crenolanib Besylate]
stdout: 79.7 nM

Hey, just so you know, these numbers are from patent US11524006B2.
